The reported measurements were obtained from patent US12102633B2.

Assay: PK study in male C57 mouse for Examples 14 and 15
Assay type: in vivo
Conditions: plasma, 1 mg/kg, Example 14 dosed 1 mpk IV
OBSERVATION TYPE: half-life (min)
Numbers only here, please. The scale is min.

Check the records and state half-life for COC(=O)c1cncc(-c2ccc3c(c2)C(=O)OC2(CCN(C(=O)c4cc(OC)c5cccc(OC)c5n4)CC2)C3)c1
19.2

###

Assay: Standard PK in CD-1 mice (m-PK)
Assay type: in vivo, mouse
Conditions: male, CD-1, mouse, whole blood; read-out: m-PK T1/2 (converted)
Protocol: Standard PK. Male catheterized CD-1 mice were treated with Compound 6 prepared in vehicle (5% DMSO+10% Solutol+85% PBS, PH=7.4) at doses of 1 mg/kg for IV (5 mL/kg) or 5 mg/kg for PO (10 mL/kg). Blood samples (20 VL) were collected at 0.083, 0.25, 0.5, 1, 2, 4, 8, and 24 hrs post dose and mixed with 60 VL 0.1 M sodium citrate. Upon extraction by using acetonitrile, blood concentrations of Compound 6 were quantitated by LC-MS/MS. PK parameters were calculated by using WinNonlin® 6.4.
OBSERVATION TYPE: half-life (min)
All answers are understood in min, so give the number only.

{"GIVEN SMILES": "COc1cc(C(=O)N2CCC3(CC2)Cc2ccc(C(C)C)cc2C(=O)O3)nc2c(OC)cccc12", "half-life, min": 25.2}

Please give the documented half-life of COc1cc(C(=O)N2CCC3(CC2)Cc2ccc(Nc4ccnn4C)cc2C(=O)O3)nc2c(OC)cccc12
30

###

Assay: PK study in male C57 mouse for Examples 14 and 15
Format: in vivo
Details: male, C57, mouse, plasma, iv, 1 mg/kg, Example 15 dosed 1 mpk IV, 2.00 h
OBSERVATION TYPE: concentration at 2 h
# include the unit after the value

Read off the recorded concentration at 2 h for COc1cc(C(=O)N2CCC3(CC2)Cc2ccc(-c4cncc(C(=O)O)c4)cc2C(=O)O3)nc2c(OC)cccc12 [Example 15]
6.6 ng/mL

###

Assay: PK study in male C57 mouse for Examples 14 and 15
Format: in vivo
Details: male, C57, mouse, plasma, iv, 1 mg/kg, Example 14 dosed 1 mpk IV, 0.08 h, analyte = labelled compound
OBSERVATION TYPE: concentration at 0.08 h (ng/mL)
Please give a number only; it is taken to be in ng/mL.

{"GIVEN SMILES": "COC(=O)c1cncc(-c2ccc3c(c2)C(=O)OC2(CCN(C(=O)c4cc(OC)c5cccc(OC)c5n4)CC2)C3)c1", "RESULT": 1880}

Let us move to another entry and its concentration at 0.08 h.
For the molecule COc1cc(C(=O)N2CCC3(CC2)Cc2ccc(-c4cncc(C(=O)O)c4)cc2C(=O)O3)nc2c(OC)cccc12 , give its reported concentration at 0.08 h.
122

###

Assay: PK study in male C57 mouse for Examples 14 and 15
Assay type: in vivo
Details: male, C57, mouse, plasma, po, 10 mg/kg, Example 14 dosed 10 mpk PO gavage, 0.25 h, analyte = labelled compound
OBSERVATION TYPE: concentration at 0.25 h (µg/mL)
Your answer is read as µg/mL, so omit the unit and give the number.

{"GIVEN SMILES": "COC(=O)c1cncc(-c2ccc3c(c2)C(=O)OC2(CCN(C(=O)c4cc(OC)c5cccc(OC)c5n4)CC2)C3)c1", "UNIT LABEL": "µg/mL", "RESULT": 3.66}

Let us move to another entry and its concentration at 0.25 h.
Output concentration at 0.25 h of COc1cc(C(=O)N2CCC3(CC2)Cc2ccc(-c4cncc(C(=O)O)c4)cc2C(=O)O3)nc2c(OC)cccc12
0.152

###

Test: PK study in male C57 mouse for Examples 14 and 15
Assay type: in vivo
Conditions: male, C57, mouse, plasma, po, 10 mg/kg, Example 15 dosed 10 mpk PO gavage, 0.50 h
OBSERVATION TYPE: concentration at 0.5 h (ng/mL)
Value expressed in ng/mL; do not type the unit.

Recall and state the measured concentration at 0.5 h for COc1cc(C(=O)N2CCC3(CC2)Cc2ccc(-c4cncc(C(=O)O)c4)cc2C(=O)O3)nc2c(OC)cccc12 .
99

###

Assay: PK study in male C57 mouse for Examples 14 and 15
Type: in vivo
Conditions: male, C57, mouse, plasma, po, 10 mg/kg, Example 14 dosed 10 mpk PO gavage, 24.00 h, analyte = labelled compound
Experimental: Pharmacokinetic studies were carried out with male C57 mouse. Compounds (Example 14 and Example 15) were each formulated in 5% DMSO+10% Solutol HS 15+85% Saline, and dosed at 1 mpk for IV injection (5 mL/kg) and 10 mpk for oral gavage (10 mUkg). Plasma samples at various time points were quantitated with LC-MS. Data reported were average of three mice. […]
OBSERVATION TYPE: concentration at 24 h (ng/mL)
Your answer should be a plain number; it is taken to be in ng/mL.

Please give the documented concentration at 24 h of COc1cc(C(=O)N2CCC3(CC2)Cc2ccc(-c4cncc(C(=O)O)c4)cc2C(=O)O3)nc2c(OC)cccc12
2.1

###

Assay: PK study in male C57 mouse for Examples 14 and 15
Type: in vivo
Details: male, C57, mouse, plasma, po, 10 mg/kg, Example 14 dosed 10 mpk PO gavage, 0.50 h, analyte = labelled compound
The entries below are paired with their reported concentration at 0.5 h.
Form entry: value (ng/mL) — number only.

{"MOLECULE": "COC(=O)c1cncc(-c2ccc3c(c2)C(=O)OC2(CCN(C(=O)c4cc(OC)c5cccc(OC)c5n4)CC2)C3)c1 [Example 14]", "RESULT": 5970}

Determine its reported concentration at 0.5 h: COc1cc(C(=O)N2CCC3(CC2)Cc2ccc(-c4cncc(C(=O)O)c4)cc2C(=O)O3)nc2c(OC)cccc12 [Example 15]
168

###

concentration at 2 h listing for selected compounds.
Test: PK study in male C57 mouse for Examples 14 and 15
Type: in vivo
Conditions: male, C57, mouse, plasma, iv, 1 mg/kg, Example 14 dosed 1 mpk IV, 2.00 h, analyte = labelled compound
Unit ng/mL implied. Number only.

{"GIVEN SMILES": "COc1cc(C(=O)N2CCC3(CC2)Cc2ccc(-c4cncc(C(=O)O)c4)cc2C(=O)O3)nc2c(OC)cccc12", "UNIT LABEL": "ng/mL", "RESULT": 16}

Dear colleague, please send me the reported concentration at 2 h for COC(=O)c1cncc(-c2ccc3c(c2)C(=O)OC2(CCN(C(=O)c4cc(OC)c5cccc(OC)c5n4)CC2)C3)c1 when you can.
30

###

Test: PK study in male C57 mouse for Examples 14 and 15
Format: in vivo
Details: male, C57, mouse, plasma, po, 10 mg/kg, Example 15 dosed 10 mpk PO gavage
OBSERVATION TYPE: Cmax (ng/mL)
Express it in ng/mL; write the number only.

Output measured Cmax for this item: COc1cc(C(=O)N2CCC3(CC2)Cc2ccc(-c4cncc(C(=O)O)c4)cc2C(=O)O3)nc2c(OC)cccc12
164

###

Assay: PK study in male C57 mouse for Examples 14 and 15
Assay type: in vivo
Details: plasma, 1 mg/kg, Example 14 dosed 1 mpk IV
OBSERVATION TYPE: Vd (L/kg)
// note: answer is a bare numeric in L/kg

Give the measured Vd for COC(=O)c1cncc(-c2ccc3c(c2)C(=O)OC2(CCN(C(=O)c4cc(OC)c5cccc(OC)c5n4)CC2)C3)c1
0.49
